target-entity: Eis_Mtb (Mycobacterium tuberculosis, UniProt P9WFK7)
Construct: gene eis
Sequence (P9WFK7 2-402): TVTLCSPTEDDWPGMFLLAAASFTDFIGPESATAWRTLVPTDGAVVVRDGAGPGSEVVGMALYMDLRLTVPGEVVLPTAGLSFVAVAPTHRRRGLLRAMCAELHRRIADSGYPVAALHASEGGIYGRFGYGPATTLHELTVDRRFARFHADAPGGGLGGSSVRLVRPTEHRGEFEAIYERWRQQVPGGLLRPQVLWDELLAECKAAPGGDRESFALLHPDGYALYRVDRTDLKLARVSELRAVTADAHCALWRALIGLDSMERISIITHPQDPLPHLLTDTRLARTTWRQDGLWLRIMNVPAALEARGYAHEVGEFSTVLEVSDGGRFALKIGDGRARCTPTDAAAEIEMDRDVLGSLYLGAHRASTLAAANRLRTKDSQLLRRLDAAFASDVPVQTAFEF
measurement-notes: dead-end inhibition kinetics, DTNB acetyltransferase assay, purified enzyme
Assay type: biochemical
assay-conditions: read-out: Ki
property: Ki (µM)
Provide the reading as a plain figure in µM.

Prompt: // lookup Ki for `OCCc1ccc(O)cc1`
Response: 175
